Test: yeast display, Sf9 membrane polyspecificity reagent, FACS + sequencing; frameworks hold sequencing errors
metric name: polyreactivity (PSR sort gate)

QVQLVESVGGLVQAGGSLRLSCAASGSTFVGNAMGWYRQAPGKERELVAAITGGGGSTYYADSVKGRFTISRDNAKNTVYLQMNSLKPEDTAVYYCAREYTYYPRWVGYDAYGEDYWGQGTQVTVSS
low polyreactivity
QVQLVESGGGLVQAGGSLRLSCAASGSTFVENAMGWYRQAPGKQRELVAAISSSGDSTFYADSEKGRFTISRDNAKNTVYLQMNSLIPEDTAVYYCAADRRINYDGLDMDYWGQGTQVTVSS
low polyreactivity

###

Assay: yeast display, Sf9 membrane polyspecificity reagent, FACS + sequencing; frameworks hold sequencing errors
metric name: polyreactivity (PSR sort gate)

QVQLVESGGGLVQAGGSLRLSCAASGSIFVSYAMGWYRQAPGKERELVAAISSSGTRTYYADSVKGRFTISRDNAKNTVYLQMNSLKPEDTAVYYCAKDSYHTVWGGYWGQGTQVTVSS
high polyreactivity
QVQLVESGGCLVQAGGSLRLSCAASGSIFIYYAMGWYRQAPGKERELVATISVRGGSTYYADSVKGRFTISRDNAKNTVYLQMNSLKPEDTAVYYCNAVTSGTTKSAYDYWGQGTQVTVSS
high polyreactivity

###

Assay: yeast display, Sf9 membrane polyspecificity reagent, FACS + sequencing; frameworks hold sequencing errors
metric name: polyreactivity (PSR sort gate)

# example entries with known answers
QVQLVESGGGLVQAGGSLRLSCAASGRIFGLYAMGWYRQAPGKERELVAAIRGRGGRTSYADSVKGRFTISRDNAKNTVYLQMNSLKPEDTAVYYCNAELYPWPGVVRYNYWGHGTQVTVSS
high polyreactivity
QVQLVESGGGLVQSGGSLRLSCAASGRIFRAYAMGWYIQAPGQERELVADITSGSGSTYYADSVKGRFTISRDYANNTVYLHMNSLKTEDTAVYYCAAYVLIRVWEYYYWGQGTQVNVSS
low polyreactivity
QVQLVESGGGLVQAGGSLRLICAASGGIFPTYDMVWYRQAPGKERELVAAIDRNGTSTTYSDSVKGRFTISRDNAKNTVYLQMNSLKPEDTEVYYCAAGYNDQTSAYDYWGHGTQVTVSS
low polyreactivity
QVQLVESGGGLVQEGGSLRLICAASGSTFKAYAMGWYRQAPGKERELVAAITNSDGDTYYADSVKGRFTISRDNAKNTVYLQMNSLKPEDRAVYYCNADDALRQTPDYNYWGQGTQVTVSS
low polyreactivity
QVQLVESGGGLVQAGGSLRLSCAASGRTFRGNAMGWYRQAPGKERELVATITFSGGSTYYADSVKWRFTISRDNAKNTVYLQMNSLKPEDTAVYYCAVRGLHLVWVPFGYDYWGQGTQVTVSS
low polyreactivity

Challenge: For QVQLVESGGGLVQAGGSLRLSCAASGSTFNRNAMGWYRQAPGKERELVAAISWRGDSTSYADSVKGRFTISRDNAKNTVYLQMNSLKPEDTAVYYCAAYRVILYYLYDYWGQGTQVTVSS , what is its reported polyreactivity (PSR sort gate)?
Response given: low polyreactivity

Challenge: Quick one: QVQLVESGGGLVQAGGSLRLSCAASGRTFHRYVMGWYRQAPGKERELVAAITRSGGITYYADSVKGRFTISRDNAKNTVYLQMNSLKPEDTAVYYCAKDDQTASGFDYWGQGTQVTVSS
Response given: low polyreactivity

Challenge: Quick one: QVQLVESGGGLVQAGGSLRLSCAASGRIFVTNAMGWSRQGPGKERELVAAISYRGGRTYYADSVKGRFTISRDNAKNTVYLQMNSLKPEDTAVYYCNAVTRWPFDYWGQGTQVTVSS
Response given: high polyreactivity

Challenge: Quick one: QVQLVESGGGLVQAGGSLRLSCAASGSIFRYNAMGWYRQAPGKERELVAAITSGDSTYYADSVKGRFTISRDNAKNTVYLQMNSLKPEDTAVYYCAVTTWANTQWEDYWGHGTQVTVSS
Response given: low polyreactivity

Challenge: Quick one: QVQLVESGGGLVQAGGSLRLSCAASGRTFYYYAMGWYRQAPGKERELVARISRGGSTNYADSVKGRFTISRDNAKNTVYLQMNILKPEDTAVYYCAKTISYTGRFWGYDYWGQGTQVTVSS
Response given: high polyreactivity

Challenge: Quick one: QVQLVESGGGLVQAGGSLRLSCAASGSTFSYNMGWYRQAPGKERELVAAISGSGGSTYADSVKGRFTISRDNAKNTVYLQMNSLKPEDTAVYYCATVRYWVHEYGYWGQGTQVTVSS
Response given: high polyreactivity
